Assay: Toxicity in HUVEC assessed as cell viability at 500 nM after 4 hrs relative to control
Type: cell-based
Details: human, HUVEC cells; read-out: Activity
Attribute: viability at 4 h, 0.5 µM

Chemical smiles	viability at 4 h, 0.5 µM (%)
COc1cc(C(=O)c2ccc3c(ccn3C)c2)c(O)c(OC)c1OC	97
COc1ccc2c(C(=O)c3cc(OC)c(OC)c(OC)c3O)c[nH]c2c1	93

====

Experiment: Toxicity in HUVEC assessed as cell viability at 2500 nM after 4 hrs relative to control
Assay type: cell-based
Details: human, HUVEC cells; read-out: Activity

Chemical smiles	viability at 4 h, 2.5 µM
COc1cc(C(=O)c2ccc3c(ccn3C)c2)c(O)c(OC)c1OC	95%
COc1ccc2c(C(=O)c3cc(OC)c(OC)c(OC)c3O)c[nH]c2c1	99%

====

Biological target: Tubulin (Bos taurus, UniProt Q6B856+Q862F3)
Sequence (Q6B856 whole entry): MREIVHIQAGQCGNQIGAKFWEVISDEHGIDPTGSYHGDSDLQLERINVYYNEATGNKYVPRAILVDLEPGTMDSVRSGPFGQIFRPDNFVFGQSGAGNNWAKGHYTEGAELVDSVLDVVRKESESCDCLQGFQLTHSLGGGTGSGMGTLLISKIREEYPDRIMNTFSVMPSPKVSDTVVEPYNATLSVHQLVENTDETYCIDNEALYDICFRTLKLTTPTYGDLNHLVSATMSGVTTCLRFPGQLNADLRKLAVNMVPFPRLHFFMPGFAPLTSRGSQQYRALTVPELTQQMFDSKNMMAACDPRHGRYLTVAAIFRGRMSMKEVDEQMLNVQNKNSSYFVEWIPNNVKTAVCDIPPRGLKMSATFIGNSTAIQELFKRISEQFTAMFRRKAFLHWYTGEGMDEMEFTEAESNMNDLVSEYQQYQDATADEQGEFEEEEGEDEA
Sequence (Q862F3 whole entry): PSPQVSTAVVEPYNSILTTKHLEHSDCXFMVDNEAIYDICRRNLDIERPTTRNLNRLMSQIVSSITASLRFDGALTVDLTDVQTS
Test: Inhibition of bovine brain tubulin polymerization after 30 mins

Chemical smiles	IC50, µM
COc1cc(C(=O)c2cccc3c2ccn3C)c(O)c(OC)c1OC	8.2
COc1ccc2c(C(=O)c3cc(OC)c(OC)c(OC)c3O)c[nH]c2c1	4.2
COc1cc(C(=O)c2ccc3c(ccn3C)c2)c(O)c(OC)c1OC	4.9

====

Assay: Toxicity in HUVEC assessed as cell viability at 100 nM after 4 hrs relative to control
Format: cell-based
Conditions: human, HUVEC cells; read-out: Activity

Chemical smiles	viability at 4 h, 0.1 µM, %
COc1ccc2c(C(=O)c3cc(OC)c(OC)c(OC)c3O)c[nH]c2c1	96
COc1cc(C(=O)c2ccc3c(ccn3C)c2)c(O)c(OC)c1OC	94

====

System: KB
Experiment: Antiproliferative activity against human KB cells after 72 hrs by methylene blue assay
Format: functional, cell-based
Measurement type: IC50

Chemical smiles	Measurement
COc1cc(C(=O)c2ccc3c(ccn3C)c2)c(O)c(OC)c1OC	33 nM
COc1cc(C(=O)c2ccc3ncccc3c2)c(O)c(OC)c1OC	22.9 nM
COc1ccc2nc(C(=O)c3cc(OC)c(OC)c(OC)c3O)ccc2c1	230 nM
COc1ccc2c(C(=O)c3cc(OC)c(OC)c(OC)c3O)c[nH]c2c1	8.8 nM
COc1cc(C(=O)c2ccnc3ccccc23)c(O)c(OC)c1OC	7700 nM
COc1cc(C(=O)c2cccc3c2ccn3C)c(O)c(OC)c1OC	57.3 nM
